// ST2 EC50 lookup, one value per entry
- tgt: T1, human DKK1 (human, UniProt O94907 32-266)
- T1 sequence: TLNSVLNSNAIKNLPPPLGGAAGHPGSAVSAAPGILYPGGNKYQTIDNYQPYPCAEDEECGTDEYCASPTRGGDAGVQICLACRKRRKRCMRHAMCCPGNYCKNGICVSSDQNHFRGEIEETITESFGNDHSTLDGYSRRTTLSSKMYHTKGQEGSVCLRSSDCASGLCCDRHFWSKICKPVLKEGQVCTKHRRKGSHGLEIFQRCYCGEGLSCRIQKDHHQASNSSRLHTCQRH
- assay_summary: cell-based or functional assay
metric_name: ST2 EC50

{"columns": ["binder", "metric_name", "reported_measurement"],
 "data": [
  ["5.65.1 (antibody, V domains shown, Fully human hybridoma IgG, lambda (Vl)) VH: EVQLLESGGGLVQPGGSLRLSCAASGFTSGNYAMSWVRQAPGKGLEWVSAISGGGGTTYYADSVEGRFTISRDNSKNTLYLQLNSLRAEDTAVYYCAKEFGELEPRFDYWGQGTLVTVSS VL: SYVLTQPPSVSVAPGQTARITCGGNNIGSKSVHWYQQKPGQAPVLVVYDDSDRPSGIPERFSGSNSGNTATLTISRVEAGDEADYYCQVLDSSSDHVIFGGGTKLTVL", "ST2 EC50", "5.87 nM"],
  ["2.4.1 (antibody, V domains shown, Fully human hybridoma IgG, kappa (Vk)) VH: QVQLMQSGAEVKKPGASVKVSCKASGYTFTSYGISWVRQAPGQGLEWMGWISADNGHTNYAQKLQGRVTMTTDTSTSTAYMELRSLRSDDTAVYYCARDGELLNYYYYYGMDVWGQGTTVTVSS VL: DIQMTQSPSSLSASVGDRVTITCRASQGIRDDLGWFQQKPGKAPKRLIYAASSLQSGVPSRFSGSGSGTEFTLTISSLQPEDFATYYCLQHNSYPCSFGQGTKLEFK", "ST2 EC50", "17.2 nM"],
  ["5.76.1 (antibody, V domains shown, Fully human hybridoma IgG, lambda (Vl)) VH: QLQLQESGPGLVKPSETLSLTCTVSGGSISSSNYYWGWIRQPPGKGLEWIGTIYYSGSTYYTPSLKSRVTISVDTSKNQFSLKLSSVTAADTAVYYCARERAIAVAAIVFFDYWGQGTLVTVSS VL: SYVLTQPPSVSVAPGQTARITCGGNNIGSESVHWYQQKPGQAPVLVVYDDSDRPSGIPERFSGSNSGNTATLTISRVEAGDEADYYCQVWDSSNDHVVFGGGTKLTVL", "ST2 EC50", "4.09 nM"]
]}
